assay: NCI Yeast Anticancer Drug Screen. Data for the cln2 rad14 strain (AID 165);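 note: 0% = growth equal to vehicle treated cultures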; conditions: S. cerevisiae cln2 rad14 strain, at 50.0 µM (retest, dose inferred, filed as 5.0)
Compounds without any hit were thinned out: in the full panel of roughly 79,000, 15% have a hit. Calls of active or inactive are those of the source. Cut-off read from the data, not from the text of the source: active = growth inhibition above about 70%; inactive = the rest.
Would you mind answering with one of these outcomes? active, inactive

Solved entries:
| MOLECULE | CAT |
| --- | --- |
| COc1ccc(NCCN(C)C)c2c(=O)c3ccccc3sc12 | inactive |
| C=C1C(=O)OC2C1CCC(=C)C1CC(O)C(=C)C12 (centres undefined) | inactive |
| CCN(CC)CCNc1c2ccccc2nc2cccc([N+](=O)[O-])c12 | active |

Please look at the following molecule next.
// return assay outcome for Cc1cc(S(=O)(=O)c2ccc(Cl)cc2)nc(S(=O)(=O)c2ccc(Cl)cc2)c1C#N
active

----------
experiment: NCI Yeast Anticancer Drug Screen. Data for the sgs1 mgt1 strain (AID 161);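 note: 0% = growth of cultures given vehicle only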; conditions: S. cerevisiae sgs1 mgt1 strain, at 50.0 µM
This is part of a sample that, as a whole, favours compounds with a hit. Of some 79,000 tested, about 15% had one in any assay. The source made the active and inactive calls. No stated cut-off is given here; in the data, active means growth inhibition above about 70%; inactive means the rest.
Would you mind answering with one of these outcomes? TRUE = active, FALSE = inactive

| SMILES_REPR | CAT |
| --- | --- |
| C=CC[P+](CC[P+](CC=C)(c1ccccc1)c1ccccc1)(c1ccccc1)c1ccccc1 | FALSE |
| CCCN(CCC)CCNc1ccc(C)c2sc3ccccc3c(=O)c12 | TRUE |
| Cc1c2c(c(C)c3c4c(oc13)CCCC4)C=NCC2 | FALSE |

Please look at the following compound next.
// return assay outcome for Cc1[nH]nc(-c2cccnc2)c1N=NN1CCOCC1
TRUE

----------
assay: NCI Yeast Anticancer Drug Screen. Data for the rad50 strain (AID 155);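 note: 0% = growth of vehicle-only cultures of the same strain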; settings: S. cerevisiae rad50 strain growth inhibition; at 50.0 µM; stronger effect = higher value
Compounds without any hit were thinned out: in the full panel of roughly 79,000, 15% have a hit.
READOUT_TYPE: growth inhibition (%)
Just the number please, in %, no unit attached.

Please review the following examples before continuing.
| SMILES_REPR | UNIT_OF_MEASURE | growth inhibition |
| --- | --- | --- |
| C(=C1/CNC/C(=C/c2ccccc2)C1)/c1ccccc1 | % | 99.5 |
| CCCCCCCN1C(=O)c2ccccc2S1(=O)=O | % | 95.1 |

Alright, here's another molecule for you.
Recorded growth inhibition of O=c1[nH]c2ccccc2c(O)c1/C=N/C(=S)NCCc1ccccc1 , please.
-41.5

----------
assay: NCI Yeast Anticancer Drug Screen. Data for the bub3 strain (AID 167); details: S. cerevisiae bub3 mutant strain, at 50.0 µM, stronger effect = higher value
Compounds without any hit were thinned out: in the full panel of roughly 79,000, 15% have a hit.
READOUT_TYPE: growth inhibition (%)
Just the number please, in %, no unit attached.

| MOLECULE | growth inhibition (%) |
| --- | --- |
| Oc1[nH]c2ccccc2c1N=NC(=S)NCc1ccccn1 | 90.8 |
| CCCCCCCCCCCCCCCCCC(=O)OCCN1C(=O)c2ccccc2C1=O | 44 |
| C/C(=N/NC(N)=O)c1ccc(Cl)s1 | 9.4 |
| CCC(CC)=NNc1ccc([N+](=O)[O-])cc1 | 97.9 |
| COc1cccc(N2CCN(CC(O)COc3cc4c(c5c3CCCC5)CCCC4)CC2)c1 (stereo unspecified) | 95 |

Recorded growth inhibition of O=C(N/C(=C\c1ccc(Br)cc1)c1nc2ccccc2[nH]1)c1ccccc1 , please.
88.4
